Consider the following compounds; for each one, report its melting point.

Q. Please report the recorded melting point for O=C1C=C(O)C(=O)c2cc(-c3ccccc3)ccc21 .
A. 190 to 192 °C

Q. Please report the recorded melting point for Cn1c2cc(Cl)ccc2c(=O)c2cccn21 .
A. 172 to 173 °C

Q. Please report the recorded melting point for CCOC(=O)C(=O)Nc1ccc2c(c1)OCC(=O)N2 .
A. 239 to 240 °C

Q. Please report the recorded melting point for O=C(Nc1cccc(-c2nnn[nH]2)c1)Oc1ccc([N+](=O)[O-])cc1 .
A. 186 to 188 °C

Q. Please report the recorded melting point for CCOC(=O)c1cc2cccc(NS(=O)(=O)c3ccccc3C(F)(F)F)c2[nH]1 .
A. 138 to 139 °C

Q. Please report the recorded melting point for CC(C)(C)c1ccc(/C=C/C(=O)Nc2ccccc2)cc1 .
A. 141 °C

Q. Please report the recorded melting point for CCn1nc2oc(CO)c(C)c2c1C .
A. 124 to 126 °C

Q. Please report the recorded melting point for COC(=O)c1ccc(/C=C/c2nc(-c3ccccc3)c(C)s2)cc1 .
A. 156 to 157 °C

Q. Please report the recorded melting point for CSCCC(=N)NS(N)(=O)=O .
A. 88 to 91 °C

Q. Please report the recorded melting point for Nc1cccc(-n2c(=O)c(Cc3cccnc3)nc3cccnc32)c1 .
A. 168 to 170 °C

Q. Please report the recorded melting point for Cc1nc2cc(Oc3cc(-c4ccc(C(F)(F)F)cc4)ccn3)ccc2s1 .
A. 160 to 164 °C

Q. Please report the recorded melting point for CON(C(=O)c1cn(C)nc1C(F)F)C(C)C1CCC(C)=CC1(C)C (configuration not stated) .
A. 95 to 105 °C

Q. Please report the recorded melting point for C[C@H]1C(=O)N[C@@H](Cc2c[nH]c3ccccc23)C(=O)N1OCc1ccccc1 .
A. 172 to 174 °C

Q. Please report the recorded melting point for CCc1nc(C(=O)O)c(Cl)c(N)c1F .
A. 144 to 145 °C

Q. Please report the recorded melting point for O=C1NCCn2c1c(-c1ccccc1)c1ccccc1c2=O .
A. > 300 °C

Q. Please report the recorded melting point for CC(C)(C)OC(=O)C[C@H](NC(=O)c1cccc(NC(=O)C(Cc2ccc(C(=N)N)cc2)NC(=O)OC(C)(C)C)c1)C(=O)N[C@@H](Cc1cccc2ccccc12)C(=O)O (mixture of isomers) .
A. 263 to 265 °C

Q. Please report the recorded melting point for Cc1ccc(NC(=O)N2CCN(CCc3ccc(-c4cccc(N)n4)cc3)CC2)cc1 .
A. 160 to 162 °C

Q. Please report the recorded melting point for O=C(NNS(=O)(=O)c1ccccc1)c1ccc2ncccc2c1 .
A. 211 to 214 °C

Q. Please report the recorded melting point for CCCC1=C(C(=O)OCC)C(c2cc(F)ccc2OC)c2c[nH]nc2N1 (configuration not stated) .
A. 164 to 167 °C

Q. Please report the recorded melting point for CC(=O)Oc1ccc(C(=O)Oc2ccc(C(=O)O)cc2)cc1 .
A. 98 to 100 °C

Q. Please report the recorded melting point for CC1=NCCN1c1cnc2[nH]cc(C(=O)C(C)(C)C)c2n1 .
A. 235 to 236 °C

Q. Please report the recorded melting point for CCCCc1ncc(C(=O)OC)c(=O)[nH]1 .
A. 153 to 155 °C
